Tested on: NCI-H929 complex spheroids, viability % test/control
Test: Anticancer human tumor NCI-H929 cell line growth inhibition [RAS];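 further: compound exposure lasted seven days before viability was read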
Conditions: second compound 0.316 µM; first compound 1 µM; stronger effect = lower value
Exam item: assign TRUE to entries whose viability, T/C is below 50% and FALSE to entries at or above 50%. Note that a value of exactly 50% receives FALSE.

The following molecules have reported results that may help.
Cc1nc(N2CCC3(CC2)COC(C)C3N)c(CO)nc1Sc1ccnc(N)c1Cl (stereo unspecified) + C=CC(=O)N1CCN(c2nc(OCC3CCCN3C)nc3c(F)c(-c4nc(N)cc(C)c4C(F)(F)F)c(Cl)cc23)C(C)C1 = FALSE
Nc1ccn(C2OC(CO)C(O)C2(F)F)c(=O)n1 (stereo unspecified) + C=CC(=O)N1CCN(c2nc(OCC3CCCN3C)nc3c(F)c(-c4nc(N)cc(C)c4C(F)(F)F)c(Cl)cc23)C(C)C1 = TRUE
CCN1CCN(Cc2ccc(Nc3ncc(F)c(-c4cc(F)c5nc(C)n(C(C)C)c5c4)n3)nc2)CC1 + C#Cc1c(F)ccc2cc(O)cc(-c3ncc4c(N5CC6CCC(C5)N6)nc(OCC56CCCN5CC(F)C6)nc4c3F)c12 = FALSE
O=C(c1ccc(F)c(F)c1Nc1ccc(I)cc1F)N1CC(O)([C@@H]2CCCCN2)C1 + C#Cc1c(F)ccc2cc(O)cc(-c3ncc4c(N5CC6CCC(C5)N6)nc(OCC56CCCN5CC(F)C6)nc4c3F)c12 = FALSE
CC(=O)OC12COC1CC(O)C1(C)C(=O)C(O)C3=C(C)C(OC(=O)C(O)C(NC(=O)OC(C)(C)C)c4ccccc4)CC(O)(C(OC(=O)c4ccccc4)C21)C3(C)C (stereo unspecified) + C#Cc1c(F)ccc2cc(O)cc(-c3ncc4c(N5CC6CCC(C5)N6)nc(OCC56CCCN5CC(F)C6)nc4c3F)c12 = TRUE

Now examine the next entry.
# TODO verify viability, T/C < 50% strictly for this molecule: Cc1nc(N2CCC3(CC2)COC(C)C3N)c(CO)nc1Sc1ccnc(N)c1Cl (stereo unspecified) + C#Cc1c(F)ccc2cc(O)cc(-c3ncc4c(N5CC6CCC(C5)N6)nc(OCC56CCCN5CC(F)C6)nc4c3F)c12
FALSE

The reported measurements were obtained from PubChem BioAssay AID2060884.
